# Test system: foxtail, giant
# Test Protocol: Test C postemergence
# Assay type: in vivo, Setaria faberi
# Reported Conditions: Postemergence, 125 g ai/ha; 0 to 100 scale (0 no effect, 100 complete control), 10 days
Endpoint Name: Plant response rating, Foxtail, Giant
// return a plain number; no unit text

The measured Plant response rating, Foxtail, Giant associated with Cc1ncn(-c2cccc(C(=O)N3C[C@H](C)Oc4c(Cl)cccc43)c2)n1 reads 70

The measured Plant response rating, Foxtail, Giant associated with Cc1ncnn1-c1cc(C(=O)N2CC(C(F)(F)F)Oc3c(Cl)cccc32)ccn1 (racemic) reads 20

The measured Plant response rating, Foxtail, Giant associated with Cc1cccc2c1OC(C(F)(F)F)CN2C(=O)c1ccnc(-n2cnc(C(C)C)n2)c1 (stereo not drawn) [Compound 327] reads 60

====

Provide the recorded Plant response rating, Blackgrass for the entries that follow.
# Tested on: blackgrass
# Test Protocol: Test C postemergence
# Assay type: in vivo, Alopecurus myosuroides
# Reported Conditions: Postemergence, 500 g ai/ha, 10 days, visual 0 to 100 scale (0 no effect, 100 complete control)
# Source text: […]
// return a plain number; no unit text

The measured Plant response rating, Blackgrass associated with COc1cc(C(=O)N2C[C@H](C)Oc3c(Cl)cccc32)cc(-n2cnc(C3CCC3)n2)c1 [Compound 214] reads 80

The measured Plant response rating, Blackgrass associated with Cc1ccc(-n2cnc(C(C)(C)C)n2)cc1C(=O)N1CC(C(F)(F)F)Oc2c(Cl)cccc21 (single isomer, unassigned) [Compound 192] reads 30

The measured Plant response rating, Blackgrass associated with COC[C@H]1CN(C(=O)c2cc(-n3cnc(C4CC4)n3)ccc2C)c2cccc(Cl)c2O1 [Compound 266] reads 80

The measured Plant response rating, Blackgrass associated with CCn1cnc(-c2cccc(C(=O)N3C[C@H](C)Oc4c(C)cccc43)c2)n1 [Compound 165] reads 10

The measured Plant response rating, Blackgrass associated with Cc1ccc(-n2cnc(CC3CC3)n2)cc1C(=O)N1C[C@H](C)Oc2c(Cl)cccc21 [Compound 273] reads 80

The measured Plant response rating, Blackgrass associated with Cc1ccc(-n2cnc(C3(C)COC3)n2)cc1C(=O)N1C[C@H](C)Oc2c(Cl)cccc21 [Compound 275] reads 90

The measured Plant response rating, Blackgrass associated with COC[C@H]1CN(C(=O)c2cc(-n3cnc(C(C)(C)O)n3)ccc2C)c2cccc(Cl)c2O1 [Compound 276] reads 90

====

Provide the recorded Wheat plant response rating for the entries that follow.
# Test system: wheat
# Test Protocol: Test C preemergence
# Assay type: in vivo, Triticum aestivum
# Reported Conditions: 500 g ai/ha, preemergence; 0 to 100 scale (0 no effect, 100 complete control)
// return a plain number; no unit text

The measured Wheat plant response rating associated with COC[C@H]1CN(C(=O)c2cc(-n3cnc(C4CCC4)n3)cc3c2OCCO3)c2cccc(Cl)c2O1 [Compound 380] reads 10

The measured Wheat plant response rating associated with CCc1ncn(-c2ccc(OC)c(C(=S)N3C[C@H](C)Oc4c(C)cccc43)c2)n1 [Compound 271] reads 80

The measured Wheat plant response rating associated with Cc1ncn(-c2ccc(F)c(C(=O)N3C[C@H](C)Oc4c(C)cccc43)c2)n1 [Compound 361] reads 70

The measured Wheat plant response rating associated with CCOCC1CN(C(=O)c2cc(-n3cnc(C(C)(C)C)n3)ccc2OC)c2cccc(Cl)c2O1 (stereo not shown) [Compound 379] reads 40

The measured Wheat plant response rating associated with Cc1cccc2c1OC(C(F)(F)F)CN2C(=O)c1ccnc(-n2cnc(C(C)C)n2)c1 (single isomer, unassigned) [Compound 320] reads 90

The measured Wheat plant response rating associated with Cc1cccc2c1O[C@@H](C)CN2C(=O)c1cccc(-n2cnc(C(C)(C)O)n2)c1 [Compound 278] reads 100

The measured Wheat plant response rating associated with CC(C)c1ncn(-c2cc(C(=O)N3C[C@H](C)Oc4c(Cl)cccc43)cnn2)n1 [Compound 305] reads 70
